Assay: Luminescence activity assay of purified Gaussia luciferase mutants on coelenterazine derivative ZS2
Type: biochemical
Design: key: ratio of mutant luminescence intensity to wild-type Gaussia luciferase
Conditions: Substrate ZS2 (Table 16)
// label = satisfied if Activity of mutant relative to wild-type Gaussia luciferase without the signal peptide is not less than 0.1, otherwise not satisfied

Exercise: Item K66N H79K P84A E102E S103I D123N L124M V138E K159N I179*: Gaussia luciferase mutant (protein, SIGNAL (1)..(17), Gaussia luciferase mutant) MGVKVLFALICIAVAEAKPTENNEDFNIVAVASNFATTDLDADRGKLPGKKLPLEVLKEMEANARNAGCTRGCLICLSKIKCTAKMKKFIPGRCHTYEGDKEIAQGGIGEAIVDIPEIPGFKNMEPMEQFIAQVDLCEDCTTGCLKGLANVQCSDLLKNWLPQRCATFASKIQGQVDKKGAGGD with Activity of mutant relative to wild-type Gaussia luciferase without the signal peptide of 0.1 or above?
Key: not satisfied

Exercise: Assess whether reported Activity of mutant relative to wild-type Gaussia luciferase without the signal peptide for N27D V29Y A30G V31L A32V S33K A36D L40V: Gaussia luciferase mutant (protein, SIGNAL (1)..(17), Gaussia luciferase mutant) MGVKVLFALICIAVAEAKPTENNEDFDIYGLVKNFDTTDVDADRGKLPGKKLPLEVLKEMEANARKAGCTRGCLICLSHIKCTPKMKKFIPGRCHTYEGDKESAQGGIGEAIVDIPEIPGFKDLEPMEQFIAQVDLCVDCTTGCLKGLANVQCSDLLKKWLPQRCATFASKIQGQVDKIKGAGGD sits at 0.1 or higher.
Key: satisfied

Exercise: Determine whether measured Activity of mutant relative to wild-type Gaussia luciferase without the signal peptide meets or exceeds 0.1 for F26I N27H V29G A32G S33D A36G T37L L40I: Gaussia luciferase mutant (protein, SIGNAL (1)..(17), Gaussia luciferase mutant) MGVKVLFALICIAVAEAKPTENNEDIHIGAVGDNFGLTDIDADRGKLPGKKLPLEVLKEMEANARKAGCTRGCLICLSHIKCTPKMKKFIPGRCHTYEGDKESAQGGIGEAIVDIPEIPGFKDLEPMEQFIAQVDLCVDCTTGCLKGLANVQCSDLLKKWLPQRCATFASKIQGQVDKIKGAGGD
Key: satisfied

Exercise: Would you say Q152R Q163S T167G S170V G174K Q175E K178S A182Y G183A: Gaussia luciferase mutant (protein, SIGNAL (1)..(17), Gaussia luciferase mutant) MGVKVLFALICIAVAEAKPTENNEDFNIVAVASNFATTDLDADRGKLPGKKLPLEVLKEMEANARKAGCTRGCLICLSHIKCTPKMKKFIPGRCHTYEGDKESAQGGIGEAIVDIPEIPGFKDLEPMEQFIAQVDLCVDCTTGCLKGLANVRCSDLLKKWLPSRCAGFAVKIQKEVDSIKGYAGD shows Activity of mutant relative to wild-type Gaussia luciferase without the signal peptide at minimum 0.1?
Key: satisfied

Exercise: Check this molecule for Activity of mutant relative to wild-type Gaussia luciferase without the signal peptide at or above 0.1: V29S A30G V31I A32V S33G A36D T37A: Gaussia luciferase mutant (protein, SIGNAL (1)..(17), Gaussia luciferase mutant) MGVKVLFALICIAVAEAKPTENNEDFNISGIVGNFDATDLDADRGKLPGKKLPLEVLKEMEANARKAGCTRGCLICLSHIKCTPKMKKFIPGRCHTYEGDKESAQGGIGEAIVDIPEIPGFKDLEPMEQFIAQVDLCVDCTTGCLKGLANVQCSDLLKKWLPQRCATFASKIQGQVDKIKGAGGD
Key: satisfied

Exercise: Say whether P84K E102K S103I E110P L124M V138D: Gaussia luciferase mutant (protein, SIGNAL (1)..(17), Gaussia luciferase mutant) MGVKVLFALICIAVAEAKPTENNEDFNIVAVASNFATTDLDADRGKLPGKKLPLEVLKEMEANARKAGCTRGCLICLSHIKCTKKMKKFIPGRCHTYEGDKKIAQGGIGPAIVDIPEIPGFKDMEPMEQFIAQVDLCDDCTTGCLKGLANVQCSDLLKKWLPQRCATFASKIQGQVDKIKGAGGD shows Activity of mutant relative to wild-type Gaussia luciferase without the signal peptide of 0.1 or more.
Key: satisfied

Exercise: Determine whether measured Activity of mutant relative to wild-type Gaussia luciferase without the signal peptide meets or exceeds 0.1 for F26C N27D A30V V31L A32G S33I A36V T37M L40G: Gaussia luciferase mutant (protein, SIGNAL (1)..(17), Gaussia luciferase mutant) MGVKVLFALICIAVAEAKPTENNEDCDIVVLGINFVMTDGDADRGKLPGKKLPLEVLKEMEANARKAGCTRGCLICLSHIKCTPKMKKFIPGRCHTYEGDKESAQGGIGEAIVDIPEIPGFKDLEPMEQFIAQVDLCVDCTTGCLKGLANVQCSDLLKKWLPQRCATFASKIQGQVDKIKGAGGD
Key: not satisfied

Exercise: Identify whether the reported Activity of mutant relative to wild-type Gaussia luciferase without the signal peptide of the following molecule is 0.1 or greater: K66N H79K E102D E110P L124M: Gaussia luciferase mutant (protein, SIGNAL (1)..(17), Gaussia luciferase mutant) MGVKVLFALICIAVAEAKPTENNEDFNIVAVASNFATTDLDADRGKLPGKKLPLEVLKEMEANARNAGCTRGCLICLSKIKCTPKMKKFIPGRCHTYEGDKDSAQGGIGPAIVDIPEIPGFKDMEPMEQFIAQVDLCVDCTTGCLKGLANVQCSDLLKKWLPQRCATFASKIQGQVDKIKGAGGD
Key: satisfied

Exercise: Given the entry F26R V29E A30G V31L A36D T37E L40S K159: Gaussia luciferase mutant (protein) MGVKVLFALICIAVAEAKPTENNEDRNIEGLASNFDETDSDADRGKLPGKKLPLEVLKEMEANARKAGCTRGCLICLSHIKCTPKMKKFIPGRCHTYEGDKESAQGGIGEAIVDIPEIPGFKDLEPMEQFIAQVDLCVDCTTGCLKGLANVQCSDLLKKWLPQRCATFASKIQGQVDKIKGAGGD , answer whether its Activity of mutant relative to wild-type Gaussia luciferase without the signal peptide meets or surpasses 0.1.
Key: not satisfied

Provenance of the data: patent US20250066745A1
